Every entry's value here was drawn from the supplement of paper PMC7125110.

Below, each of the variants is paired with its reported self-cleavage kobs at 640 uM GlcN6P value.
B1: glmS ribozyme (parent)
chain: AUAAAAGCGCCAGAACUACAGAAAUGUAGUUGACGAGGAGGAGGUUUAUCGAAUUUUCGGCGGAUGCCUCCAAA

Variants of: B1
Assay: self-cleavage kobs at 640 uM GlcN6P; higher = faster cleavage; RNA array
Conditions: with glucosamine-6-phosphate
Variants at the floor of the assay were thinned out.

Query string: Which self-cleavage kobs at 640 uM GlcN6P value is on record for AUAAAAACGCCAGAACUACAGAAAUGUAGUGGACGAGGAGGAGGUUUAUCGAAUUUUCGGCGGAUGUCUCCAAA [G7A U31G C67U] ?
Result string: < 1e-05 s⁻¹

Query string: Which self-cleavage kobs at 640 uM GlcN6P value is on record for AUAAAAGCGCCAGAACUACAGAAAUGUAGUUGACGAGGAGGAGGUUUAUCGAAUUUCCGGCGGAUGCCUUCAAA [U57C C70U] ?
Result string: 7.23e-05 s⁻¹

Query string: Which self-cleavage kobs at 640 uM GlcN6P value is on record for AUAAAAGCGCCAGAACUACAGAAAUGUAGUUGACGAGGAGGAGGCUUUUCGAAUUUUCGACGGAUGCCUCCAAA [U45C A48U G60A] ?
Result string: < 1e-05 s⁻¹

Query string: Which self-cleavage kobs at 640 uM GlcN6P value is on record for AUAAAAGCGCCAGAACUACAGAAAUGUAGUUGACGAGGAGGAUGUUCAUCGAAUUUUCGGCGGAUUCCUCCAAA [G43U U47C G66U] ?
Result string: < 1e-05 s⁻¹

Query string: Which self-cleavage kobs at 640 uM GlcN6P value is on record for AUAAAAGCGCCAGGACUACAGAAAUGUAGUUCACGAGGAGGAGGAUUAUCGAAUUUUCGGCGGAUGCCUGCAAA [A14G G32C U45A C70G] ?
Result string: < 1e-05 s⁻¹

Query string: Which self-cleavage kobs at 640 uM GlcN6P value is on record for AUAAAAGCCCCAGAACUACAGAAAUGUAGUUGACGAGGAGGAGGUUUAUCAUAUUUUCGGCGGAUGCCUGCAAA [G9C G51A A52U C70G] ?
Result string: < 1e-05 s⁻¹

Query string: Which self-cleavage kobs at 640 uM GlcN6P value is on record for AUAAAAGCGCCAGAACUACAGAAAUGUAGUUGACGAGGAUGAGGUUUAACGAAUUUUCGGCGGAUGCCUCCAAA [G40U U49A] ?
Result string: < 1e-05 s⁻¹

Query string: Which self-cleavage kobs at 640 uM GlcN6P value is on record for AUAAAAGCGCCAGAACUACAGAAAUGUAGUUGACGAGGAUGAGGUUUAUCGAAUUUUCGGCCGAUGCCUCCAAA [G40U G62C] ?
Result string: < 1e-05 s⁻¹

Query string: Which self-cleavage kobs at 640 uM GlcN6P value is on record for AUAAAAGCGCCAGAACUACAGAAAUGUAGCUGACGAGGAGGAGGUUUAUCGAAUUUUCGUCGGAUGCCUCCAAA [U30C G60U] ?
Result string: < 1e-05 s⁻¹
